- ASSAY TEXT: Toxicity Model (TOX), rotorod, mice
- Format: in vivo
- CONDITION DETAILS: male, CFI, mouse, in vivo, ip; mice
METRIC NAME: TD50 (mg/kg)
Response body: numeric value in mg/kg, unit text excluded.

Enquiry: So what's the measured TD50 for this one? C/C=C1\[C@H]2C=C(C)C[C@]1(N)c1ccc(=O)[nH]c1C2
Return: 0.83
